# credit: the METLIN SMRT retention time set (Domingo-Almenara et al. 2019)

Test: gradient 5% acetonitrile 3 min, to 50% in 2 min, to 85% in 15 min, held 3 min, 100 µL/min
Details: column: Zorbax Extend-C18 2.1 x 50 mm; eluents: water / acetonitrile, 0.1% formic acid
1 (yes) if RP-LC retention time is below 800 s. 0 (no) if not; exact matches included in 0 (no).

RP-LC retention time under 800 s? Item: CC(C)C(=O)N1CCCCCCN(C)C(=O)[C@@H]2CCC[C@@H]21
1 (yes)

# TODO verify RP-LC retention time < 800 s strictly for this molecule: CCCN1C(=O)COc2ccc(-c3noc(-c4ccc(N(C)C)cc4)n3)cc21
0 (no)

I wonder whether COc1ccc(Cl)cc1CC1C(=O)Nc2ccccc21 (stereo not given) has RP-LC retention time below 800 s. Can you tell?
0 (no)

In the record for COCCCn1c(=O)c2ccccc2n(Cc2nc(-c3ccc(OC)c(OC)c3)no2)c1=O , is RP-LC retention time less than 800 s?
0 (no)

Determine if Cc1ccc(NC(=O)c2cnc3c(c2)c(=O)n(C)c(=O)n3-c2ccccc2)cc1 shows RP-LC retention time strictly lower than 800 s.
0 (no)

Lab log: compare recorded RP-LC retention time with 800 s; is it strictly lower for CCc1nn(CC)c(=O)c2cc(S(=O)(=O)NCc3cccc(Cl)c3)cn12 ?
0 (no)

Lab log: compare recorded RP-LC retention time with 800 s; is it strictly lower for O=C(Cc1cn(Cc2ccc(Cl)cc2)c2ccccc12)NC1CC1 ?
0 (no)

I wonder whether CCn1cnc2ccc(-c3noc(COc4ccc(OC)cc4)n3)cc21 has RP-LC retention time below 800 s. Can you tell?
1 (yes)

Criterion: RP-LC retention time strictly below 800 s. Is it met by Fc1ccc(-c2nc(-c3ccc(-n4cccn4)nc3)no2)c(F)c1 ?
0 (no)

For CC(C)n1cnc(S(=O)(=O)N2CCCC(C(=O)NCc3ccc(N(C)C)cc3)C2)c1 (stereo not given) , is the recorded RP-LC retention time below the cut-off of 800 s?
1 (yes)

Please let me know if Cc1oc2ncn(CC(=O)N3CCN(c4ccccn4)CC3)c(=O)c2c1C shows RP-LC retention time below 800 s.
1 (yes)

Confirm or reject: RP-LC retention time of COc1ccc2c(c1)CC(C(=O)NCc1ccc(OC)cc1OC)CO2 (stereo not given) lies strictly below 800 s
0 (no)

Regarding Cc1sc(-c2noc(C3CC3)n2)cc1S(=O)(=O)N1CCC(C(=O)NC2CCC(C)CC2)CC1 (stereo not given) , kindly confirm whether its RP-LC retention time is beneath 800 s.
0 (no)

Would you kindly verify if RP-LC retention time of Cc1nc(-c2csc(S(=O)(=O)N3CCCC(C(=O)Nc4cccc(C#N)c4)C3)c2)no1 (stereo not given) is strictly less than 800 s?
0 (no)

RP-LC retention time under 800 s? Item: O=C(CN1CCC(c2nc(-c3cccc(F)c3)no2)CC1)NC1CCCCC1
1 (yes)

Find out if reported RP-LC retention time for CC(C)NC(=O)C1CCCN(C(=O)Nc2ccc(S(=O)(=O)N3CCCCCC3)s2)C1 (stereo not given) is less than 800 s
0 (no)

Item COCCNC(=O)c1coc(NC(=O)c2cnccn2)n1 : RP-LC retention time beneath 800 s, strictly?
1 (yes)

Is the reported RP-LC retention time for CCS(=O)(=O)c1ccc(-c2ccc(NC(=O)Cc3ccc(F)cc3)cc2)nn1 strictly below 800 s?
1 (yes)
